// data source = ChEMBL document CHEMBL4330057

Test: Drug uptake in C57Bl/6 mouse serum at 10 mg/kg/day, ip qd for 7 days measured on day 7 at 5 to 240 mins post dose by UHPLC/MS analysis
Format: ADME, organism-based
Conditions: in vivo, read-out: Drug uptake
ENDPOINT LABEL: concentration

Annotate the molecule Cl.Cl.Cl.Cl.c1cc(NCCN2CCOCC2)c2ccc3c(ccc4c(NCCN5CCOCC5)ccnc43)c2n1 with its measured concentration. 460 to 650 nM

---

Tested on: Ebolavirus
Assay: Antiviral activity against Ebolavirus H. sapiens-wt/1995/Kikwit-9510621 infected in human HeLa cells assessed as inhibition of viral infection pretreated for 2 hrs followed by viral infection and measured after 48 hrs by EboV GP immunostaining based high content imaging analysis
Format: functional, organism-based
Settings: Orthoebolavirus, H. sapiens-wt/1995/Kikwit-9510621, HeLa
ENDPOINT LABEL: EC90 (µM)
Response body: numeric value in µM, unit text excluded.

Annotate the compound CN(C)CCOCCNc1ccnc2c1ccc1c2ccc2c(NCCOCCN(C)C)ccnc21 with its measured EC90. 6.74

Annotate the compound NCCCCNc1ccnc2c1ccc1c2ccc2c(NCCCCN)ccnc21 with its measured EC90. 23.5

Annotate the compound Clc1ccc2c(NCCCCNc3ccnc4cccnc34)ccnc2c1 with its measured EC90. 13

Annotate the compound c1cc(NCCCCN2CCOCC2)c2nccc(NCCCCN3CCOCC3)c2n1 with its measured EC90. 9.9

---

Experiment: Cytotoxicity against human HeLa cells after 2 hrs by high content imaging analysis
Format: cell-based
Would you mind telling me the reported CC50 at 2 h of each entry?

Annotate the compound Cl.Cl.Cl.Cl.c1cc(NCCN2CCOCC2)c2ccc3c(ccc4c(NCCN5CCOCC5)ccnc43)c2n1 with its measured CC50 at 2 h. > 20 µM

Annotate the compound CCN(CC)CCCNc1ccnc2c1ccc1c2ccc2c(NCCN3CCOCC3)ccnc21 with its measured CC50 at 2 h. > 10 µM

Annotate the compound NCCCNc1ccnc2c1ccc1c2ccc2c(NCCCN)ccnc21 with its measured CC50 at 2 h. > 10 µM

Annotate the compound CCN(CC)CCCNc1ccnc2c(NCCCN(CC)CC)ccnc12 with its measured CC50 at 2 h. > 10 µM

Annotate the compound Clc1ccc2c(NCCCCNc3ccnc4cccnc34)ccnc2c1 with its measured CC50 at 2 h. > 25 µM

---

Would you mind telling me the reported IC50 of each entry?

Give IC50; test system Cytochrome P450 2D6 (Homo sapiens); molecule CCN(CC)CCCNc1ccnc2c(NCCCN(CC)CC)ccnc12 > 10 µM

Give IC50; test system Cytochrome P450 2D6 (Homo sapiens); molecule CCN(CC)CCCC(C)Nc1ccnc2c(NC(C)CCCN(CC)CC)ccnc12 (stereo not drawn) 8 µM

Give IC50; test system Cytochrome P450 2D6 (Homo sapiens); molecule Cl.Cl.Cl.Cl.c1cc(NCCCCN2CCOCC2)c2ccc3c(ccc4c(NCCN5CCOCC5)ccnc43)c2n1 > 10 µM

---

Would you mind telling me the reported Papp A→B of each entry?
Test: Apparent permeability from apical to basolateral side in MDCK cells
Assay type: ADME, cell-based, Canis lupus familiaris
Conditions: dog

Annotate the compound CC(C)NCC(O)COc1cccc2ccccc12 (stereo not drawn) [PROPRANOLOL] with its measured Papp A→B. 37.7 to 39 ×10⁻⁶ cm/s

Annotate the compound Cl.Cl.Cl.Cl.c1cc(NCCCCN2CCOCC2)c2ccc3c(ccc4c(NCCN5CCOCC5)ccnc43)c2n1 with its measured Papp A→B. 39.3 to 67.2 ×10⁻⁶ cm/s

Annotate the compound COc1cc2nc(N3CCN(C(=O)c4ccco4)CC3)nc(N)c2cc1OC [PRAZOSIN] with its measured Papp A→B. 27.6 to 30 ×10⁻⁶ cm/s

---

Would you mind telling me the reported solubility of each entry?
Test: Solubility of the compound in deionized water
Assay type: physicochemical

Annotate the compound CCN(CC)CCCC(C)Nc1ccnc2c(NC(C)CCCN(CC)CC)ccnc12 (stereo not drawn) with its measured solubility. ≥ 25 mg/mL

Annotate the compound Cl.Cl.Cl.Cl.c1cc(NCCCCN2CCOCC2)c2ccc3c(ccc4c(NCCN5CCOCC5)ccnc43)c2n1 with its measured solubility. ≥ 25 mg/mL

Annotate the compound CCN(CC)CCCNc1ccnc2c(NCCCN(CC)CC)ccnc12 with its measured solubility. ≥ 25 mg/mL

---

Would you mind telling me the reported microsomal CLint of each entry?
Test: Clearance in human liver microsomes after 1 hr
Format: ADME, Microsome
Conditions: read-out: CLH

Annotate the molecule CCN(CC)CCCNc1ccnc2c(NCCCN(CC)CC)ccnc12 with its measured microsomal CLint. < 23 µL/min/mg

Annotate the molecule Cl.Cl.Cl.Cl.c1cc(NCCCCN2CCOCC2)c2ccc3c(ccc4c(NCCN5CCOCC5)ccnc43)c2n1 with its measured microsomal CLint. 32.9 µL/min/mg

Annotate the molecule CCN(CC)CCCC(C)Nc1ccnc2c(NC(C)CCCN(CC)CC)ccnc12 (stereo not drawn) with its measured microsomal CLint. < 23 µL/min/mg
